tested.on: T1, BAFF-R (B-cell activating factor receptor, TNFRSF13C) (Homo sapiens, UniProt Q96RJ3 Q96RJ3:1-76)
T1 sequence: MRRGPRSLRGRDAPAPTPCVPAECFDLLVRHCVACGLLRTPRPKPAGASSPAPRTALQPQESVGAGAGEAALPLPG
test.details: EMSA; high-salt binding buffer; about
experimental.setup: tags: ProSpect (Israel), human recombinant; label: 5'-32P or Cy3
assay.readout: Kd (nM)
A number alone suffices; assume nM.

Which measured Kd value corresponds to R-14 aptamer (ssRNA, 2'-F pyrimidines (2'-F-C, 2'-F-U)) RNA: GGGAGGACGAUGCGGAUAACUAUUGUGCUAGAGGGCUUAUUUAUGUGAGCCGGUUGAUAGUUGCGCAGACGACUCGCCCGA ?
96

Where do these numbers come from? They come from patent US20160348113.
